Can you tell me bioavailability for the items I'm about to list?
test: Oral bioavailability in 129/SvEvBrd x C57BL/6 hybrid mouse at 1 mg/kg, iv and 10 mg/kg, po; format: ADME, organism-based; conditions: 129/SvEvBrd x C57BL/6 hybrid, in vivo
Give bare numbers, in %.

# per-item lookup of bioavailability; items listed below
1. CC(=O)c1nc([C@@H](O)[C@H](O)[C@H](O)CO)cn1C
2. OC[C@@H](O)[C@@H](O)[C@H](O)c1c[nH]c(-c2ncon2)n1
3. OC[C@@H](O)[C@@H](O)[C@H](O)c1c[nH]c(-c2cscn2)n1
4. CC(=O)c1nc([C@H](O)[C@@H](O)[C@@H](O)CO)c[nH]1
5. OC[C@@H](O)[C@@H](O)[C@H](O)c1c[nH]c(-c2ncc[nH]2)n1
6. Cn1cnc(-c2nc([C@@H](O)[C@H](O)[C@H](O)CO)c[nH]2)c1
7. CC(=O)c1nc([C@@H](O)[C@@H](O)[C@H](O)CO)c[nH]1

Reply |
1. 33.6
2. 5
3. 12
4. 17
5. 28
6. 3
7. 25

List the reported bioavailability of each compound below.
1. CC(=O)c1nc([C@@H](O)[C@H](O)[C@H](O)CO)c(C)[nH]1
2. O=C(c1ccccc1)c1nc([C@@H](O)[C@H](O)[C@H](O)CO)c[nH]1
3. OC[C@@H](O)[C@@H](O)[C@H](O)c1c[nH]c(-c2cnccn2)n1

Reply |
[11, 14, 10]
